Test system: MRC-5 (human lung fibroblast)
method: Alamar blue cytotoxicity assay, MRC-5
Format: cell-based
particulars: read-out: IC50 in µM; MRC-5 non-cancer cells, alamar blue, 72 h
result type: IC50 (µM)
Numbers only; they are read as µM.

Exercise: State its IC50: `O=C1[O][Pt]2([NH][C@@H]3CCCC[C@H]3[NH]2)[O]C1=O`
Key: 1.3
